Target: T1, human IL-1α (human, UniProt P01583 113-271)
T1 construct: also called IL-1alpha; hIL-1α
T1 sequence (looked up): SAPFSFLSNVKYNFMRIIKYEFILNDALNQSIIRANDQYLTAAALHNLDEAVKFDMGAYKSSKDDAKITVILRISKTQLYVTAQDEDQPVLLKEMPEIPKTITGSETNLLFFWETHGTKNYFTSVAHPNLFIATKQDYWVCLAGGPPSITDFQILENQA
Test: Table 62 IC50; RBA presumed
Measurement Type: IC50 (nM)
// return numeric value only (unit: nM, not printed)

Example binders with recorded IC50:
- Binder: "ABT1-95-116 (other, VK dAb) VL: DIQMTQSPSSLSASVGDRVTITCRASQPIVRNLRWYQQKPGKAPKLLIYSSSYLEPGVPSRFSGSGSGTDFTLTISSLQPEDFATYHCVQGYRWPVTFGQGTKVEIKR"
  IC50 / nM: 0.2
- Binder: "ABT1-95-73 (other, VK dAb) VL: DIQMTQSPSSLSASVGDRVTITCRASQPIVRNLRWYQQKPGKAPKLLIYQSSYLEPGVPSRFSGSGSGTDFTLTISSLQPEDFATYHCQQGYRWPVTFGQGTKVEIKR"
  IC50 / nM: 3
- Binder: "ABT1-130 (other, VK dAb) VL: DIQMTQSPSSLSASVGDRVTITCRASQEIGLWLSWYQQKSGKAPKLLIYRHSSSQSGVPSRFSGSGSGTDFTLTISSLQPEDFATYYCQQTYKAPFTFGQGTKVEIKR"
  IC50 / nM: 300
- Binder: "ABT1-95-59 (other, VK dAb) VL: DIQMTQSPSSLSASVGDRVTITCRASQPIVKNLRWYQQKPGKAPKLLIYSSSYLEPGVPSRFSGSGSGTDFTLTISSLQPEDFATYHCQQGYRWPVTFGQGTKVEIKR"
  IC50 / nM: 0.3
- Binder: "ABT1-141-27 (other, VK dAb) VL: DIQMTQSPSSLSASVGDRVTITCRASQWIQKQLAWYQQKPGKAPKLLIYSSSYLQSGVPSRFSGSGSGTDFTLTISSLQPEDFATYYCQQGLRQPMTFGQGTKVEIKR"
  IC50 / nM: 20
- Binder: "ABT1-95-117 (other, VK dAb) VL: DIQMTQSPSSLSASVGDRVTITCRASQPIVRNLRWYQQKPGKAPKLLIYSSSYLEPGVPSRFSGSGSGTDFTLTISSLQPEDFAMYHCVQGYRWPVTFGQGTKVEIKR"
  IC50 / nM: 0.2

Input line: Would you mind telling me what IC50 value was observed for ABT1-95-121 (other, VK dAb) VL: DIQMTQSPSSLSASVGDRVTITCRASQPIVRNLRWYQQKPGKAPKLLIYSSSYLEPGVPSRFSGSGSGTDFTLTISSLQPEDFATYHCQQGYEWPVTFGQGTKVEIKR ?
Output line: 0.2
